system: Radical scavenging activity; assay: Antioxidant activity assessed as DPPH radical scavenging activity for 10 mins; format: functional
# pIC50 listing for each entry below
# pIC50: negative log10 of molar concentration; output just the value

# compound, pIC50
measured = [
    ("CCCC(=O)OCC1Oc2ccc([C@H]3Oc4cc(O)cc(O)c4C(=O)[C@@H]3O)cc2OC1c1ccc(O)c(OC)c1 (some centres undefined)", 2.47),
]

Task: Note pIC50 for the compound shown: CCCCCCCCCCCC(=O)Oc1cc(O)c2c(c1)O[C@H](c1ccc3c(c1)OC(c1ccc(O)c(OC)c1)C(CO)O3)[C@@H](O)C2=O (some centres undefined)
Output: 2.52

Task: Item CCCCCCCCCCCC(=O)OCC1Oc2ccc([C@H]3Oc4cc(O)cc(O)c4C(=O)[C@@H]3O)cc2OC1c1ccc(O)c(OC)c1 (some centres undefined) : provide pIC50
Output: 2.55

Task: Specify pIC50 for CCCCCCCCCCCCCCCC(=O)Oc1cc(O)c2c(c1)O[C@H](c1ccc3c(c1)OC(c1ccc(O)c(OC)c1)C(CO)O3)[C@@H](O)C2=O (some centres undefined) and stop.
Output: 2.44

Task: Quote pIC50 reported for CCCCCCCC(=O)OCC1Oc2ccc([C@H]3Oc4cc(O)cc(O)c4C(=O)[C@@H]3O)cc2OC1c1ccc(O)c(OC)c1 (some centres undefined) please.
Output: 2.49

Task: Tell me measured pIC50 for CCCCCCCC(=O)Oc1cc(O)c2c(c1)O[C@H](c1ccc3c(c1)OC(c1ccc(O)c(OC)c1)C(CO)O3)[C@@H](O)C2=O (some centres undefined) please.
Output: 2.40

Task: Supply measured pIC50 of CCCC(=O)Oc1cc(O)c2c(c1)O[C@H](c1ccc3c(c1)OC(c1ccc(O)c(OC)c1)C(CO)O3)[C@@H](O)C2=O (some centres undefined) in your reply.
Output: 2.64

Task: Kindly indicate its recorded pIC50. Item: CCCCCCCCCCCCCCCC(=O)OCC1Oc2ccc([C@H]3Oc4cc(O)cc(O)c4C(=O)[C@@H]3O)cc2OC1c1ccc(O)c(OC)c1 (some centres undefined)
Output: 2.49

Task: In one line, give reported pIC50 of the entry COc1cc(C2Oc3cc([C@H]4Oc5cc(O)cc(O)c5C(=O)[C@@H]4O)ccc3OC2CO)ccc1O (some centres undefined) .
Output: 2.68

* * *

experiment: Selectivity index, ratio of CC50 for MDCK cells to EC50 for Influenza A virus (A/PR8/34(H1N1)); format: toxicity, cell-based; details: dog, read-out: Ratio CC50/EC50
reported endpoint: selectivity ratio
Please reply with the number alone, leaving off any unit.

# compound, selectivity ratio
measured = [
    ("CCCCCCCC(=O)Oc1cc(O)c2c(c1)O[C@H](c1ccc3c(c1)OC(c1ccc(O)c(OC)c1)C(CO)O3)[C@@H](O)C2=O (stereo partly specified)", 40),
    ("CCCCCCCCCCCC(=O)OCC1Oc2ccc([C@H]3Oc4cc(O)cc(O)c4C(=O)[C@@H]3O)cc2OC1c1ccc(O)c(OC)c1 (stereo partly specified)", 40),
    ("CCCC(=O)OCC1Oc2ccc([C@H]3Oc4cc(O)cc(O)c4C(=O)[C@@H]3O)cc2OC1c1ccc(O)c(OC)c1 (stereo partly specified)", 12.5),
]

Task: Specify selectivity ratio for CCCC(=O)Oc1cc(O)c2c(c1)O[C@H](c1ccc3c(c1)OC(c1ccc(O)c(OC)c1)C(CO)O3)[C@@H](O)C2=O (stereo partly specified) and stop.
Output: 21.4

* * *

assay: Cytotoxicity against MDCK cells after 2 hrs by MTT assay; format: cell-based, Canis lupus familiaris; conditions: dog
# Lookup of reported CC50 at 2 h keyed by entry
The response must be a number in µM with no trailing unit.

# molecule, CC50 at 2 h, µM
rows = [
    ("CCCCCCCCCCCC(=O)OCC1Oc2ccc([C@H]3Oc4cc(O)cc(O)c4C(=O)[C@@H]3O)cc2OC1c1ccc(O)c(OC)c1 (stereo partly drawn)", 120),
]

Task: Supply CC50 at 2 h value. Item: CCCCCCCC(=O)Oc1cc(O)c2c(c1)O[C@H](c1ccc3c(c1)OC(c1ccc(O)c(OC)c1)C(CO)O3)[C@@H](O)C2=O (stereo partly drawn)
Output: 240

Task: Return the recorded CC50 at 2 h value; entry: CCCC(=O)Oc1cc(O)c2c(c1)O[C@H](c1ccc3c(c1)OC(c1ccc(O)c(OC)c1)C(CO)O3)[C@@H](O)C2=O (stereo partly drawn)
Output: 300

Task: Identify measured CC50 at 2 h associated with CCCCCCCC(=O)OCC1Oc2ccc([C@H]3Oc4cc(O)cc(O)c4C(=O)[C@@H]3O)cc2OC1c1ccc(O)c(OC)c1 (stereo partly drawn)
Output: 30

Task: Identify CC50 at 2 h associated with the molecule CCCC(=O)OCC1Oc2ccc([C@H]3Oc4cc(O)cc(O)c4C(=O)[C@@H]3O)cc2OC1c1ccc(O)c(OC)c1 (stereo partly drawn)
Output: 300

* * *

Recorded CC50 at 2 h values for a group of compounds are listed next.
assay: Cytotoxicity against MDCK cells after 2 hrs by MTT assay; assay type: cell-based, Canis lupus familiaris; settings: dog

# compound, reported endpoint, measured result
measured = [
    ("CCCCCCCCCCCCCCCC(=O)OCC1Oc2ccc([C@H]3Oc4cc(O)cc(O)c4C(=O)[C@@H]3O)cc2OC1c1ccc(O)c(OC)c1 (stereo partly drawn)", "CC50 at 2 h", "> 480 µM"),
    ("COc1cc(C2Oc3cc([C@H]4Oc5cc(O)cc(O)c5C(=O)[C@@H]4O)ccc3OC2CO)ccc1O (stereo partly drawn)", "CC50 at 2 h", "> 800 µM"),
]

Task: Provide measured CC50 at 2 h value, entry: CCCCCCCCCCCC(=O)Oc1cc(O)c2c(c1)O[C@H](c1ccc3c(c1)OC(c1ccc(O)c(OC)c1)C(CO)O3)[C@@H](O)C2=O (stereo partly drawn)
Output: > 560 µM

The measurements presented in this section are drawn from ChEMBL document CHEMBL1154861.
